drug sensitivity score values by entry
Test system: ST8814
assayDetails: drug sensitivity score (DSS, CellTiter-Glo viability, 72 h) (DSS (dimensionless)); higher = more sensitive; extreme values may be limits of the assay
attributeMeasured: drug sensitivity score

- compound: "COC1=CC(c2cc3ccccc3[nH]2)=N/C1=C\\c1[nH]c(C)cc1C [Obatoclax] (max concentration tested 10000 nM)"
  observedMeasurement: 5.7
- compound: "CC1(COc2ccc3c(c2)ncn3-c2ccc3cccc(N4CCC(N)CC4)c3n2)COC1 [Crenolanib] (max concentration tested 10000 nM)"
  observedMeasurement: 8.29
- compound: "CCc1c(C(=O)C(N)=O)c2c(OCC(=O)O)cccc2n1Cc1ccccc1 [Varespladib] (max concentration tested 10000 nM)"
  observedMeasurement: 0
- compound: "O=C(CCBr)N1CCN(C(=O)CCBr)CC1 [Pipobroman] (max concentration tested 10000 nM)"
  observedMeasurement: 0

====

Test system: S1507-2
assayDetails: drug sensitivity score (DSS, CellTox-Green cytotoxicity, 72 h) (DSS (dimensionless)); higher = more cytotoxic; extreme values may be limits of the assay
# binarize drug sensitivity score: threshold 1 inclusive, high side rule met, low side rule not met

- molecule: "COc1nc(N)nc2c1ncn2[C@@H]1O[C@H](CO)[C@@H](O)[C@@H]1O [Nelarabine] (max concentration tested 10000 nM)"
  subjectOfTest: "S1507-2"
  labelValue: "rule met"
- molecule: "O=C(O)C1(C(=O)O)CCC1.[NH2-].[NH2-].[Pt+2] [Carboplatin aq] (max concentration tested 100000 nM)"
  subjectOfTest: "S1507-2"
  labelValue: "rule met"
- molecule: "CN(C)CCOc1ccc(/C(=C(/CCCl)c2ccccc2)c2ccccc2)cc1 [Toremifene] (max concentration tested 10000 nM)"
  subjectOfTest: "S1507-2"
  labelValue: "rule met"
- molecule: "Cc1ccc(F)c(NC(=O)Nc2ccc(-c3cccc4[nH]nc(N)c34)cc2)c1 [Linifanib] (max concentration tested 1000 nM)"
  subjectOfTest: "S1507-2"
  labelValue: "rule not met"
- molecule: "CC(C)(C)c1cc(NC(=O)Nc2ccc(-c3cn4c(n3)sc3cc(OCCN5CCOCC5)ccc34)cc2)no1 [Quizartinib] (max concentration tested 1000 nM)"
  subjectOfTest: "S1507-2"
  labelValue: "rule not met"
- molecule: "CCCS(=O)(=O)Nc1ccc(F)c(C(=O)c2c[nH]c3ncc(-c4ccc(Cl)cc4)cc23)c1F [Vemurafenib] (max concentration tested 10000 nM)"
  subjectOfTest: "S1507-2"
  labelValue: "rule not met"
- molecule: "O=C(O)CC[C@H]1CC[C@@](c2cc(F)ccc2F)(S(=O)(=O)c2ccc(Cl)cc2)CC1 [MK-0752] (max concentration tested 1000 nM)"
  subjectOfTest: "S1507-2"
  labelValue: "rule not met"
- molecule: "Cn1cnc(-c2cc3nccc(Oc4ccc(NC(=S)NC(=O)Cc5ccccc5)cc4F)c3s2)c1 [MGCD-265] (max concentration tested 10000 nM)"
  subjectOfTest: "S1507-2"
  labelValue: "rule met"
- molecule: "C=C(c1ccc(C(=O)O)cc1)c1cc2c(cc1C)C(C)(C)CCC2(C)C [Bexarotene] (max concentration tested 10000 nM)"
  subjectOfTest: "S1507-2"
  labelValue: "rule met"
- molecule: "NC1(c2ccc(-c3nc4ccn5c(=O)[nH]nc5c4cc3-c3ccccc3)cc2)CCC1 [MK-2206] (max concentration tested 1000 nM)"
  subjectOfTest: "S1507-2"
  labelValue: "rule not met"
- molecule: "CNNCc1ccc(C(=O)NC(C)C)cc1 [Procarbazine] (max concentration tested 10000 nM)"
  subjectOfTest: "S1507-2"
  labelValue: "rule not met"
- molecule: "N#Cc1ccc(COC[C@H]2O[C@@H](n3c(NCc4ccc(Cl)c(Cl)c4)nc4c(N)ncnc43)[C@H](O)[C@@H]2O)cc1 (max concentration tested 10000 nM)"
  subjectOfTest: "S1507-2"
  labelValue: "rule not met"
- molecule: "CC(C)NC[C@@H](C(=O)N1CCN(c2ncnc3c2[C@H](C)C[C@H]3O)CC1)c1ccc(Cl)cc1 [GDC-0068] (max concentration tested 10000 nM)"
  subjectOfTest: "S1507-2"
  labelValue: "rule not met"
- molecule: "CC1(C)CCC(CN2CCN(c3ccc(C(=O)NS(=O)(=O)c4ccc(NCC5CCOCC5)c([N+](=O)[O-])c4)c(Oc4cnc5[nH]ccc5c4)c3)CC2)=C(c2ccc(Cl)cc2)C1 [ABT-199] (max concentration tested 10000 nM)"
  subjectOfTest: "S1507-2"
  labelValue: "rule not met"
- molecule: "CS(=O)(=O)OCCCCOS(C)(=O)=O [Busulfan] (max concentration tested 100000 nM)"
  subjectOfTest: "S1507-2"
  labelValue: "rule not met"

Reference source: the supplement of paper PMC5579334
